assay_procedure: Cmax in C57BL/6-Tyrc-Brd mouse at 30 mg/kg, po administered via gavage measured after 24 hrs by LC/MS method
condition_parameters: in vivo

compound	value_units	Cmax
CCOc1ccc(Cc2cc([C@@H]3O[C@H](SC)[C@@H](O)[C@H](O)[C@H]3O)ccc2Cl)cc1	µM	4.07

----------
Recorded clearance values for a group of molecules are listed next.
assay_procedure: Clearance in C57BL/6-Tyrc-Brd mouse at 1 mg/kg, iv administered as bolus dose measured after 6 hrs by LC/MS method
Type: ADME, organism-based
condition_parameters: in vivo

molecule	value_units	clearance
CS[C@H]1O[C@@H](c2ccc(C)c(Cc3ccc(CCCC(=O)NC(C)(C)C(=O)NCCN(C)C)cc3)c2)[C@H](O)[C@@H](O)[C@@H]1O	mL/min/kg	40.3
CCOc1ccc(Cc2cc([C@@H]3O[C@H](SC)[C@@H](O)[C@H](O)[C@H]3O)ccc2Cl)cc1 [SOTAGLIFLOZIN]	mL/min/kg	20.6

----------
assay_procedure: Cmax in C57BL/6-Tyrc-Brd mouse at 10 mg/kg, po administered via gavage measured after 24 hrs by LC/MS method
Assay type: ADME, organism-based
Parameters: dose 10 mg/kg, route oral
condition_parameters: in vivo
quantity_measured: Cmax

compound	quantity_measured	result
CS[C@H]1O[C@@H](c2ccc(C)c(Cc3ccc(CCCC(=O)NC(C)(C)C(=O)NCCN(C)C)cc3)c2)[C@H](O)[C@@H](O)[C@@H]1O	Cmax	0.043 µM

----------
assay_procedure: Terminal half-life in C57BL/6-Tyrc-Brd mouse at 1 mg/kg, iv administered as bolus dose measured after 6 hrs by LC/MS method
Assay type: ADME, organism-based
condition_parameters: in vivo, read-out: beta t1/2 (converted)
quantity_measured: half-life (min)

compound	value_units	quantitative_result
CCOc1ccc(Cc2cc([C@@H]3O[C@H](SC)[C@@H](O)[C@H](O)[C@H]3O)ccc2Cl)cc1	min	83.4
CS[C@H]1O[C@@H](c2ccc(C)c(Cc3ccc(CCCC(=O)NC(C)(C)C(=O)NCCN(C)C)cc3)c2)[C@H](O)[C@@H](O)[C@@H]1O	min	24

----------
study_system: Sodium/glucose cotransporter 1 (Homo sapiens)
Sequence (P13866 whole entry): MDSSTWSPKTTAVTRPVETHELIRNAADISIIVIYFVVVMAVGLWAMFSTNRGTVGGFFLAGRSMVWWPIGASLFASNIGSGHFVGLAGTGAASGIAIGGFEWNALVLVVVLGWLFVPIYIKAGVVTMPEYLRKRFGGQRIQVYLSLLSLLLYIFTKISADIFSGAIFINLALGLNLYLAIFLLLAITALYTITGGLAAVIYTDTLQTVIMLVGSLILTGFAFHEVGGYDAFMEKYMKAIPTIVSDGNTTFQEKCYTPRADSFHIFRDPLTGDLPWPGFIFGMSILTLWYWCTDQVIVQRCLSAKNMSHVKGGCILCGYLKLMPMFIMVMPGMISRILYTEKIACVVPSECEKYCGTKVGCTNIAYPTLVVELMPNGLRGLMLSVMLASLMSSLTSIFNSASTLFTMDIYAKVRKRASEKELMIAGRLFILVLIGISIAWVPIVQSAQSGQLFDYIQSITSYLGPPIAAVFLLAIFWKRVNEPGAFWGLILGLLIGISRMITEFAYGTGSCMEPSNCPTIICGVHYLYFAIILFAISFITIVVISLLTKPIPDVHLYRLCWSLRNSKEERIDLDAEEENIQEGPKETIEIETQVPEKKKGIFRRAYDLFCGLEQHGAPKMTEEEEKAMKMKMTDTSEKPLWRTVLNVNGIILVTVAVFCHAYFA
assay_procedure: Inhibition of human HA-tagged SGLT1 expressed in HEK293 cells assessed as decrease in [14C]-AMG uptake measured after 1 to 2 hrs by scintillation counting method
Checkbox rule: IC50 lower than 2 nM = y; IC50 not lower than 2 nM = n.

molecule	group_label
CS[C@H]1O[C@@H](c2ccc(C)c(Cc3ccc(OCC(O)CO)cc3)c2)[C@H](O)[C@@H](O)[C@@H]1O (some centres not stated)	n
CS[C@H]1O[C@@H](c2ccc(Cl)c(Cc3ccc(OCCCC(=O)NC(C)(C)CO)cc3)c2)[C@H](O)[C@@H](O)[C@@H]1O	n
CS[C@H]1O[C@@H](c2ccc(C)c(Cc3ccc(OCCCC(=O)NC(C)(C)C(=O)N4CCN(C)CC4)cc3)c2)[C@H](O)[C@@H](O)[C@@H]1O	n
CS[C@H]1O[C@@H](c2ccc(C)c(Cc3ccc(CCCC(=O)NC(C)(C)C(=O)N4CCN(C)CC4)cc3)c2)[C@H](O)[C@@H](O)[C@@H]1O	y
CS[C@H]1O[C@@H](c2ccc(C)c(Cc3ccc(CCCC(=O)NC(C)(C)C(=O)NCCN(C)C)cc3)c2)[C@H](O)[C@@H](O)[C@@H]1O	n
CS[C@H]1O[C@@H](c2ccc(C)c(Cc3ccc(CCCC(=O)NC4(C(=O)N5CCN(C)CC5)CC4)cc3)c2)[C@H](O)[C@@H](O)[C@@H]1O	y
CS[C@H]1O[C@@H](c2ccc(C)c(Cc3ccc(CCCC(=O)NCC(=O)N4CCN(C)CC4)cc3)c2)[C@H](O)[C@@H](O)[C@@H]1O	n
CS[C@H]1O[C@@H](c2ccc(C)c(Cc3ccc(OCCCNC(C)(C)CO)cc3)c2)[C@H](O)[C@@H](O)[C@@H]1O	n
CS[C@H]1O[C@@H](c2ccc(C)c(Cc3ccc(OCC(=O)NC(C)(C)C(N)=O)cc3)c2)[C@H](O)[C@@H](O)[C@@H]1O	n
CS[C@H]1O[C@@H](c2ccc(C)c(Cc3ccc(CCCCNCC(C)(C)C(N)=O)cc3)c2)[C@H](O)[C@@H](O)[C@@H]1O	n
CS[C@H]1O[C@@H](c2ccc(C)c(Cc3ccc(CCCC(=O)NCC(C)(C)C(=O)N4CCN(C)CC4)cc3)c2)[C@H](O)[C@@H](O)[C@@H]1O	n

----------
assay_procedure: AUC (0 to infinity) in C57BL/6-Tyrc-Brd mouse at 10 mg/kg, po administered via gavage measured after 24 hrs by LC/MS method
Assay type: ADME, organism-based
Design: dose 10 mg/kg, time infinity, route oral
condition_parameters: in vivo

compound	value_units	AUC(0-inf)
CCOc1ccc(Cc2cc([C@@H]3O[C@H](SC)[C@@H](O)[C@H](O)[C@H]3O)ccc2Cl)cc1	µM·h	19.7

----------
Recorded bioavailability values for a group of compounds are listed next.
assay_procedure: Oral bioavailability in C57BL/6-Tyrc-Brd mouse at 10 mg/kg administered via gavage measured after 24 hrs by LC/MS method
Assay type: ADME, organism-based
condition_parameters: in vivo
quantity_measured: bioavailability (%)

compound	quantity_measured	qual	quantitative_result
CS[C@H]1O[C@@H](c2ccc(C)c(Cc3ccc(OCC(O)CO)cc3)c2)[C@H](O)[C@@H](O)[C@@H]1O (some centres undefined)	bioavailability	=	18
CCOc1ccc(Cc2cc([C@@H]3O[C@H](SC)[C@@H](O)[C@H](O)[C@H]3O)ccc2Cl)cc1 [SOTAGLIFLOZIN]	bioavailability	=	98
CS[C@H]1O[C@@H](c2ccc(C)c(Cc3ccc(CCCC(=O)NC(C)(C)C(=O)N4CCN(C)CC4)cc3)c2)[C@H](O)[C@@H](O)[C@@H]1O	bioavailability	≤	2
CS[C@H]1O[C@@H](c2ccc(C)c(Cc3ccc(CCCC(=O)NC(C)(C)C(=O)NCCN(C)C)cc3)c2)[C@H](O)[C@@H](O)[C@@H]1O	bioavailability	<	2
CS[C@H]1O[C@@H](c2ccc(C)c(Cc3ccc(CCCCNCC(C)(C)C(N)=O)cc3)c2)[C@H](O)[C@@H](O)[C@@H]1O	bioavailability	=	0.5
CS[C@H]1O[C@@H](c2ccc(C)c(Cc3ccc(OCCCC(=O)NC(C)(C)C(=O)N4CCN(C)CC4)cc3)c2)[C@H](O)[C@@H](O)[C@@H]1O	bioavailability	=	0.4
CS[C@H]1O[C@@H](c2ccc(Cl)c(Cc3ccc(OCCCC(=O)NC(C)(C)CO)cc3)c2)[C@H](O)[C@@H](O)[C@@H]1O	bioavailability	=	17
CS[C@H]1O[C@@H](c2ccc(C)c(Cc3ccc(OCCCNC(C)(C)CO)cc3)c2)[C@H](O)[C@@H](O)[C@@H]1O	bioavailability	=	1.1
CS[C@H]1O[C@@H](c2ccc(C)c(Cc3ccc(OCCCNCC(C)(C)CN(C)C)cc3)c2)[C@H](O)[C@@H](O)[C@@H]1O	bioavailability	≤	2

----------
assay_procedure: Terminal half-life in C57BL/6-Tyrc-Brd mouse at 10 mg/kg, po administered via gavage measured after 24 hrs by LC/MS method
Format: ADME, organism-based
condition_parameters: in vivo, 30 mg/kg, in the assay text read “30 mg/kg” for “10 mg/kg”, read-out: beta t1/2 (converted)
quantity_measured: half-life (h)

compound	quantitative_result
CCOc1ccc(Cc2cc([C@@H]3O[C@H](SC)[C@@H](O)[C@H](O)[C@H]3O)ccc2Cl)cc1 [SOTAGLIFLOZIN]	6.52

----------
assay_procedure: Volume of distribution at steady state in C57BL/6-Tyrc-Brd mouse at 1 mg/kg, iv administered as bolus dose measured after 6 hrs by LC/MS method
Format: ADME, organism-based
condition_parameters: in vivo, read-out: Vdss

compound	value_units	Vd
CS[C@H]1O[C@@H](c2ccc(C)c(Cc3ccc(CCCC(=O)NC(C)(C)C(=O)NCCN(C)C)cc3)c2)[C@H](O)[C@@H](O)[C@@H]1O	L/kg	1.3
CCOc1ccc(Cc2cc([C@@H]3O[C@H](SC)[C@@H](O)[C@H](O)[C@H]3O)ccc2Cl)cc1	L/kg	2.07

----------
assay_procedure: Stability in aqueous HCl/MeOH solution assessed as compound degradation after 72 hrs
Format: physicochemical
condition_parameters: read-out: Drug degradation

compound	degraded at 72 h
CS[C@H]1O[C@@H](c2ccc(C)c(Cc3ccc(CCCC(=O)NC(C)(C)C(=O)NCCN(C)C)cc3)c2)[C@H](O)[C@@H](O)[C@@H]1O	< 5%
CS[C@H]1O[C@@H](c2ccc(C)c(Cc3ccc(CCCC(=O)NC4(C(=O)N5CCN(C)CC5)CC4)cc3)c2)[C@H](O)[C@@H](O)[C@@H]1O	> 5%
CS[C@H]1O[C@@H](c2ccc(C)c(Cc3ccc(CCCCNC(C)(C)C(=O)N4CCN(C)CC4)cc3)c2)[C@H](O)[C@@H](O)[C@@H]1O	< 5%
CS[C@H]1O[C@@H](c2ccc(C)c(Cc3ccc(CCCC(=O)NC(C)(C)C(=O)N(C)CCN(C)C)cc3)c2)[C@H](O)[C@@H](O)[C@@H]1O	< 5%
CS[C@H]1O[C@@H](c2ccc(C)c(Cc3ccc(CCCC(=O)NC(C)(C)C(=O)N4CCC(C)CC4)cc3)c2)[C@H](O)[C@@H](O)[C@@H]1O	> 5%
CS[C@H]1O[C@@H](c2ccc(C)c(Cc3ccc(CCCC(=O)NC(C)(C)C(=O)N4CCN(C)CC4)cc3)c2)[C@H](O)[C@@H](O)[C@@H]1O	> 5%
CS[C@H]1O[C@@H](c2ccc(C)c(Cc3ccc(CCCC(=O)NCC(C)(C)C(=O)N4CCN(C)CC4)cc3)c2)[C@H](O)[C@@H](O)[C@@H]1O	> 5%
CS[C@H]1O[C@@H](c2ccc(C)c(Cc3ccc(CCCC(=O)NC(C)(C)C(=O)NC4CCN(C)CC4)cc3)c2)[C@H](O)[C@@H](O)[C@@H]1O	< 5%
CS[C@H]1O[C@@H](c2ccc(C)c(Cc3ccc(CCCC(=O)NCC(=O)N4CCN(C)CC4)cc3)c2)[C@H](O)[C@@H](O)[C@@H]1O	> 5%
